TEST TARGET: T1, L1 (DV1-GV4), soluble leucine zipper γδ TCR heterodimer of a delta variable 1 chain and a gamma variable 4 … (human)
T1 construct: also called bt-L1; not shown: histidine tag/linker said to follow the zipper
T1 sequence (main, as listed by the source, chain 1 of 2): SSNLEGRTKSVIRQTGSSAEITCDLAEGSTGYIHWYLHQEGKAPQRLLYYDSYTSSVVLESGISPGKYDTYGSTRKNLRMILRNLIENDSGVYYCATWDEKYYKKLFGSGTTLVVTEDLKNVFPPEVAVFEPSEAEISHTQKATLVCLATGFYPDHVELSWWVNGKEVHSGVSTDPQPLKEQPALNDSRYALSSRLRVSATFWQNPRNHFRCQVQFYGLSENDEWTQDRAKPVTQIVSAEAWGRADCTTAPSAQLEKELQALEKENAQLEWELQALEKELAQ
T1 sequence (main, as listed by the source, chain 2 of 2): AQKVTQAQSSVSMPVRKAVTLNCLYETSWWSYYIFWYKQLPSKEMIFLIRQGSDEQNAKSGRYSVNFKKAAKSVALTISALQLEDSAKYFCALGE
PROCEDURE SUMMARY: SPR (Reichert 4SPR), L1 coupled to chip, IgG1 flowed, steady state 1:1 fit; experiment 1
pKd values for the binders below.
# reply with the number alone; pKd is -log10 of concentration in mol/L

Answered examples (3):
{"columns": ["BINDER", "pKd"],
 "data": [
  ["G4_3 (antibody, human IgG1, V domains shown, also called 1139_P01_A04; G4_03) VH: EVQLVESGGGLVQPGGSLRLSCAASGFTFSSYSMNWVRQAPGKGLEWVSSISSSSSYIYYADSVKGRFTISRDNSKNTLYLQMNSLRAEDTAVYYCARGGWLYDYWGQGTLVTVSS VL: DIQMTQSPSSLSASVGDRVTITCQASQDISNYLNWYQQKPGKAPKLLIYDASNLETGVPSRFSGSGSGTDFTLTISSLQPEDFATYFCQQSYSTPQTFGQGTKVDIKR", 8.43],
  ["G4_27 (antibody, human IgG1, V domains shown, also called 1248_P02_C10; clone G4_27) VH: QVQLVQSGAEVKKPGESLKISCKSSGYSFTSYWIGWVRQMPGKGLEWMGIIYPGDSDTRYSPSFQGQVTFSADESISTAYLQWSSLKASDTAMYYCARHGAYGDYPDTFDIWGQGTLVTVSS VL: SSYELTQDPAVSVALGQTVSITCQGDSLRNFYANWYQQKPGQAPVLVIYGKNNRPSGIPDRFSGSSSGNTASLTITGAQAEDEADYYCNSRDSSGNHLVFGGGTQLTVLG", 6.58],
  ["G4_12 (antibody, human IgG1, V domains shown, also called 1140_P01_G08; clone G4_12) VH: EVQLLESGGGLVQPGGSLRLSCAASGFTVSSNYMSWVRQAPGKGLEWVSVIYSGGSTYYADSVKGRFTISRHNSKNTLYLQMNSLRAEDTAVYYCARVANGDFLDYWGRGTLVTVSS VL: SQSVLTQPASVSGSPGQSITISCTGTSSDVGGYNFVSWYQQHPGKAPKLMIYEVTNRPSGVPDRFSGSKSGNTASLTISGLQAEDEADYYCSSHASPRVFGTGTKVTVLG", 7.75]
]}

Next item in the queue.
## Input Please look at this binder and report its pKd: G4_20 (antibody, human IgG1, V domains shown, also called 1254_P02_G02; clone G4_20) VH: QVQLVESGAEVKKPGASVKVSCKASGGTFSSYAISWVRQAPGQGLEWMGGIIPIFGTANYAQKFQGRVTITVDKSTRTAYMELSSLRSKDTAVYYCARGNSRSDAFDIWGQGTMVTVSS VL: SSYELTHPPSVSVSPGQTASITCSGDKLGDKFVSWYHQKPGQSPVLVIYQDSKRPSGIPERFSGSNSGNTATLTISGTRAMDEADYYCQAWDSSTVVFGGGTKLTVLG
## Output 7.37
